Reference for the values: ChEMBL document CHEMBL2163233

assay: in vitro; settings: rat, microsomes, CLH
outcome measure: microsomal CLint (µL/min/mg)

1. O=C(NCc1ccc(OC(F)(F)F)cc1)C1c2ccccc2C(=O)N1CC(F)(F)c1ccccn1 (stereo not drawn)
30
2. CC1(C(=O)NCc2ccc(OC(F)(F)F)cc2)c2ccccc2C(=O)N1CCc1ccccn1 (racemic)
57
3. N#C[C@H]1CC[C@H](N2C(=O)c3ccccc3C2C(=O)NCc2ccc(OC(F)(F)F)cc2)CC1 (stereo partly drawn)
11
4. CC(NC(=O)C1c2ccccc2C(=O)N1CCc1ccccn1)c1ccc(OCC(F)(F)F)cc1 (stereo not drawn)
49
5. O=C(NCc1ccc(OC(F)(F)F)cc1)C1c2ccccc2C(=O)N1CC1CC(F)(F)C1 (stereo not drawn)
38
6. O=C(NCc1ccc(OC(F)(F)F)cc1)C1c2ccccc2C(=O)N1CCc1ccncc1 (stereo not drawn)
20
7. COc1cccc2c1C(C(=O)NCc1ccc(OC(F)(F)F)cc1)N(CCc1ccccn1)C2=O (stereo not drawn)
37
8. O=C(NCc1ccc(F)c(OC(F)(F)F)c1)C1c2ccccc2C(=O)N1CCc1ncc(F)cn1 (stereo not drawn)
110
9. CC(C)(C)OC(=O)N1CCC(N2C(=O)c3ccccc3C2C(=O)NCc2ccc(OC(F)(F)F)cc2)CC1 (stereo not drawn)
89
10. O=C(NCc1ccc(OC(F)(F)F)cc1)C1c2ccccc2C(=O)N1CCc1cccnc1 (stereo not drawn)
28
11. O=C(NCc1ccc(CC(F)(F)F)cc1)C1c2ccccc2C(=O)N1CCc1ccccn1 (stereo not drawn)
42
12. O=C(NCc1ccc(OC(F)(F)F)cc1)C1c2ccccc2C(=O)N1CCOc1ccccn1 (stereo not drawn)
39
13. O=C(NCc1ccc(OC(F)(F)F)cc1)C1c2ccccc2C(=O)N1C[C@@H]1CCCO1 (stereo partly drawn)
28
14. O=C(NCc1ccc(OC(F)(F)F)cc1)C1c2cccc(F)c2C(=O)N1CCc1ccccn1 (stereo not drawn)
16
